Tested on: SW-620 cells
Assay: In vitro cell viability assay (CellTiter-Glo, 6 days)
Format: cell-based
Settings: Homo sapiens, free antifolate drugs, Table 1a
Each record is given 1 if its reported IC50 is strictly below 2 nM. Records at or above 2 nM are given 0.

compound=Nc1ccc(C(=O)NCCC[C@H](NC(=O)c2ccc(CCc3cnc4nc(N)nc(N)c4n3)cc2)C(=O)O)cc1 cat=0
compound=CN(Cc1cnc2nc(N)nc(N)c2n1)c1ccc(C(=O)N[C@@H](CCCNC(=O)c2ccc(N)cc2)C(=O)O)cc1 cat=0
compound=[N-]=[N+]=Nc1ccc(C(=O)NCCC[C@H](NC(=O)c2ccc(CCc3cnc4nc(N)nc(N)c4n3)cc2)C(=O)O)cc1 cat=0
compound=Nc1ccc(C(=O)O)c(C(=O)NCCC[C@H](NC(=O)c2ccc(CCc3cnc4nc(N)nc(N)c4n3)cc2)C(=O)O)c1 cat=0
compound=CN(Cc1cnc2nc(N)nc(N)c2n1)c1ccc(C(=O)N[C@@H](CCCNC(=O)c2ccc(N)cc2C(=O)O)C(=O)O)cc1 cat=0
compound=Nc1ccc(C(=O)O)c(C(=O)NCCC[C@H](NC(=O)c2ccc(NCc3cnc4nc(N)nc(N)c4n3)cc2)C(=O)O)c1 cat=0
compound=Nc1ccc(C(=O)NCCC[C@H](NC(=O)c2ccc(NCc3cnc4nc(N)nc(N)c4n3)cc2)C(=O)O)c(C(=O)O)c1 cat=0
compound=Nc1ccc(C(=O)NCCC[C@H](NC(=O)c2ccc(NCc3cnc4nc(N)nc(N)c4n3)cc2)C(=O)O)cc1 cat=0
compound="Cc1c(CNc2ccc(C(=O)N[C@@H](CCCNC(=O)c3ccccc3C(=O)O)C(=O)O)cc2)ccc2nc(N)nc(N)c12 [Comparative compound 1, reference compound]" cat=1
compound=Nc1ccc(C(=O)NCCC[C@H](NC(=O)c2ccc(CCc3cnc4nc(N)nc(N)c4n3)cc2)C(=O)O)c(C(=O)O)c1 cat=1
compound=CN(Cc1cnc2nc(N)nc(N)c2n1)c1ccc(C(=O)N[C@@H](CCCNC(=O)c2cc(N)ccc2C(=O)O)C(=O)O)cc1 cat=0
compound="Nc1nc(N)c2nc(CNc3ccc(C(=O)N[C@@H](CCCNC(=O)c4ccccc4C(=O)O)C(=O)O)cc3)cnc2n1 [Talotrexin, reference compound]" cat=1
